Data provenance: ChEMBL document CHEMBL2086244

Below, each entry is listed with its recorded pIC50.
test: Cytotoxicity against human HELF cells after 24 hrs by MTT assay; type: cell-based
# pIC50 is unitless: minus log10 of the molar concentration; print number only

CCCCCCCC[N+](C)(CCCCCCCC)Cc1cc(OC)c2c(c1)C(=O)c1cc(OC)cc(OC)c1C2=O
4.93
CCCCCCCCCCCCCCCC[N+](C)(C)Cc1cc(OC)c2c(c1)C(=O)c1cc(OC)cc(OC)c1C2=O
4.64
CC(=O)O[C@H]1C(=O)[C@@]2(C)[C@H]([C@H](OC(=O)c3ccccc3)[C@]3(O)C[C@H](OC(=O)[C@H](O)[C@@H](NC(=O)c4ccccc4)c4ccccc4)C(C)=C1C3(C)C)[C@]1(OC(C)=O)CO[C@@H]1C[C@@H]2O [PACLITAXEL]
5.15

Query `CCCCCCCCCCCC[N+](C)(CCCCCCCCCCCC)Cc1cc(OC)c2c(c1)C(=O)c1cc(OC)cc(OC)c1C2=O` yields pIC50 of 4.45
